For each record, write down the corresponding Ratio EC50.
- System: Trypanosoma brucei brucei
- MEASUREMENT_NOTES: Resistant factor, ratio of EC50 for diminazene/pentamidine/melaminophenyl arsenicals-resistant Trypanosoma brucei brucei B48 to EC50 for wild type bloodstream form of Trypanosoma brucei brucei s427 trypomastigotes
- Type: functional
Write the value as a bare number.

Look at this molecule and give its reported Ratio EC50. "O=C(Nc1ccc(N=C2NCCN2)cn1)c1ccc(N=C2NCCN2)cc1"
3.1

What do we get for "O=C(Nc1ccc(NC2=NCCN2)cc1)c1ccc(NC2=NCCN2)cc1" ?
1.1

What do we get for "O=C(Nc1ccc(N=C2NCCN2)cc1)c1ccc(N=C2NCCN2)c(F)c1" ?
1.3

What do we get for "O=C(Nc1ccc(N=C2NCCN2)cc1)c1ccc(N=C2NCCN2)c(Cl)c1" ?
0.9

What do we get for "O=C(Nc1ccc(N=C2NCCN2)cc1F)c1ccc(N=C2NCCN2)cc1" ?
1.4

What do we get for "O=C(Nc1ccc(N=C2NCCN2)cc1Cl)c1ccc(N=C2NCCN2)cc1" ?
1

What do we get for "O=C(Nc1ccc(N=C2NCCN2)c(F)c1)c1ccc(N=C2NCCN2)cc1" ?
1.4

What do we get for "O=C(Nc1ccc(N=C2NCCN2)cc1)c1ccc(N=C2NCCN2)cc1Cl" ?
1.8

What do we get for N=C(N)c1ccc(OCCCCCOc2ccc(C(=N)N)cc2)cc1 [PENTAMIDINE] ?
3349

What do we get for N=C(N)c1ccc(/N=N/Nc2ccc(C(=N)N)cc2)cc1 [DIMINAZENE] ?
42

What do we get for "O=C(Nc1ccc(N=C2NCCN2)c(Cl)c1)c1ccc(N=C2NCCN2)cc1" ?
1.7

What do we get for "O=C(Nc1ccc(N=C2NCCN2)cc1)c1ccc(N=C2NCCN2)cc1F" ?
1.4
